// values below are reported Ki
target system: human glucagon receptor (GCGR) (Homo sapiens (Human))
assay explanation: Inhibition of 125I-glucagon binding to membranes from HEK293 cells expressing the human glucagon receptor
assay context: membranes of hGluc-1 HEK cells, 125I-glucagon 0.3 nM, 2 hours room temperature; IC50 converted to Ki; average if tested more than once

Worked cases, answers included:
| molecule | target system | Ki |
| --- | --- | --- |
| O=C(O)CCNC(=O)c1ccc(-c2cc(C(F)(F)F)ccc2CNc2ccc(-c3ccc(F)c(C(F)(F)F)c3)c(Cl)c2)cn1 [Compound 31] | human glucagon receptor (GCGR) (Homo sapiens (Human)) | 22.1 nM |
| O=C(O)CCNC(=O)c1ccc(-c2cc(F)c(F)cc2CNc2ccc(-c3ccc(Cl)c(C(F)(F)F)c3)c(Cl)c2)cn1 [Compound 106] | human glucagon receptor (GCGR) (Homo sapiens (Human)) | 26.1 nM |
| O=C(O)CCNC(=O)c1ccc(-c2cc(Cl)ccc2CNc2ccc(-c3ccc(Cl)cc3)cc2F)cn1 [Compound 12] | human glucagon receptor (GCGR) (Homo sapiens (Human)) | 53 nM |

Next up:
# Ki (molecule: O=C(O)CCNC(=O)c1ccc(-c2cc(Cl)ccc2CNc2ccc(-c3cccc(C(F)(F)F)c3)c(Cl)c2)cn1 [Compound 170] ) is 20.7 nM

----------
Form field: pKi (one value per entry).
target system: human glucagon receptor (GCGR) (Homo sapiens (Human))
assay explanation: Inhibition of 125I-glucagon binding to membranes from HEK293 cells expressing the human glucagon receptor
assay context: meta-substituted comparative compounds (Table 3); membranes of hGluc-1 HEK cells, 125I-glucagon 0.3 nM
pKi: −log10 of the molar value.

Reference set, count: 4
| compound | target system | pKi |
| --- | --- | --- |
| O=C(O)CCNC(=O)c1ccc(-c2cc(Cl)cc(CNc3ccc(-c4ccc(F)cc4)cc3)c2)cn1 [Compound M1, reference compound] | human glucagon receptor (GCGR) (Homo sapiens (Human)) | < 5.57 |
| O=C(O)CCNC(=O)c1ccc(-c2cc(Cl)cc(CNc3ccc(-c4ccc(Cl)cc4)cc3)c2)cn1 [Compound M3, reference compound] | human glucagon receptor (GCGR) (Homo sapiens (Human)) | < 5.87 |
| COc1ccc(-c2ccc(NCc3cc(Cl)cc(-c4ccc(C(=O)NCCC(=O)O)nc4)c3)cc2)cc1 [Compound M2, reference compound] | human glucagon receptor (GCGR) (Homo sapiens (Human)) | < 5.57 |
| O=C(O)CCNC(=O)c1ccc(-c2cc(Cl)cc(C(=O)Nc3ccc(-c4ccc(Cl)cc4)cc3)c2)cn1 [Compound M5, reference compound] | human glucagon receptor (GCGR) (Homo sapiens (Human)) | < 5.27 |

Now look at this one.
For reference, reported pKi for O=C(O)CCNC(=O)c1ccc(-c2cc(Cl)cc(CNc3ccc(-c4ccc(Cl)cc4Cl)cc3)c2)cn1 [Compound M4, reference compound] stands at < 5.87

----------
pKi values, listed per item
target system: human glucagon receptor (GCGR) (Homo sapiens (Human), UniProt P47871)
Sequence (P47871 26-477): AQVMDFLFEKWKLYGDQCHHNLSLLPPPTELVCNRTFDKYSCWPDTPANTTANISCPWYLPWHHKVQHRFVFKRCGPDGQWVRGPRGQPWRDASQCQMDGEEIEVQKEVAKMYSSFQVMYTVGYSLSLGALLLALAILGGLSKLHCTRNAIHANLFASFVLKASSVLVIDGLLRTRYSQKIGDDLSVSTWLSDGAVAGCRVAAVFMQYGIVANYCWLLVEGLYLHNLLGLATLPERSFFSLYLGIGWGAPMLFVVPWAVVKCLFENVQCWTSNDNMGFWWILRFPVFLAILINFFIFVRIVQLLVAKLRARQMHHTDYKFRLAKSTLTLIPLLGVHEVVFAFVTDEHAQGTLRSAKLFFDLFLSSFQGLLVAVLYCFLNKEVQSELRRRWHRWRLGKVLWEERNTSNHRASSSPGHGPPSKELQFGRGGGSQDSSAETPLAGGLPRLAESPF
assay explanation: Inhibition of 125I-glucagon binding to membranes from HEK293 cells expressing the human glucagon receptor
assay context: membranes of hGluc-1 HEK cells, 125I-glucagon 0.3 nM, 2 hours room temperature; IC50 converted to Ki; average if tested more than once
Bear in mind: pKi is minus log10 of a mol/L concentration; give just that figure.

Look over these answered cases.
| molecule | target system | reported metric | test result |
| --- | --- | --- | --- |
| O=C(O)CCNC(=O)c1ccc(-c2cc(Cl)ccc2CNc2ccc(-c3ccc(F)c(F)c3)cc2)cn1 [Compound 136] | human glucagon receptor (GCGR) (Homo sapiens (Human), UniProt P47871) | pKi | 7.54 |
| O=C(O)CCNC(=O)c1ccc(-c2cc(Cl)ccc2CNc2ccc(-c3ccc(F)cc3C(F)(F)F)cc2)cn1 [Compound 149] | human glucagon receptor (GCGR) (Homo sapiens (Human), UniProt P47871) | pKi | 7.40 |
| O=C(O)CCNC(=O)c1ccc(-c2cc(Cl)ccc2CNc2ccc(-c3ccccc3C(F)(F)F)cc2)cn1 [Compound 131] | human glucagon receptor (GCGR) (Homo sapiens (Human), UniProt P47871) | pKi | 7.15 |

# ---- query molecule ----
// field: pKi; key: O=C(O)CCNC(=O)c1ccc(-c2cc(C3CCCCC3)ccc2CNc2ccc(-c3ccc(F)cc3)cc2)cn1 [Compound 175] ; value = 7.62

Values were extracted from patent US8748624B2.
